# System: MOLM14
# Test Details: cell viability relative to vehicle control; higher = less cytotoxic;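 further: after 48 h exposure read by CellTiter-Glo luminescence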
# Run Parameters: 10 µM; SRSF2 genotype: SRSF2 wt/wt
Measured Endpoint: cell viability (%)
Reply with just the number (in %).

These recorded examples may help you get a feel for the data.
{"Compound": "CO[C@H]1/C=C/O[C@@]2(C)Oc3c(C)c(O)c4c(O)c(c(/C=N/N5CCN(C)CC5)c(O)c4c3C2=O)NC(=O)/C(C)=C\\C=C\\[C@H](C)[C@H](O)[C@@H](C)[C@@H](O)[C@@H](C)[C@H](OC(C)=O)[C@@H]1C", "Study System": "MOLM14", "Measured Endpoint": "cell viability", "Value Observed": 95.7}
{"Compound": "COc1ccc(OC)c(C2C(C#N)=C(N)Oc3n[nH]c(-c4ccc5ccccc5c4)c32)c1 (centres undefined)", "Study System": "MOLM14", "Measured Endpoint": "cell viability", "Value Observed": 102}
{"Compound": "NC1(C(=O)N[C@@H](CCO)c2ccc(Cl)cc2)CCN(c2ncnc3[nH]ccc23)CC1", "Study System": "MOLM14", "Measured Endpoint": "cell viability", "Value Observed": 33.3}
{"Compound": "CC(=O)OCC(=O)[C@@]1(O)CC[C@H]2[C@@H]3CCC4=CC(=O)CC[C@]4(C)[C@@]3(F)[C@@H](O)C[C@@]21C [Fludrocortisone acetate]", "Study System": "MOLM14", "Measured Endpoint": "cell viability", "Value Observed": 102}
{"Compound": "COc1cc(O)c2c(c1)C(=O)c1cc(C)cc(O)c1C2=O", "Study System": "MOLM14", "Measured Endpoint": "cell viability", "Value Observed": 103}
{"Compound": "Cc1cc(O)cc(O)c1", "Study System": "MOLM14", "Measured Endpoint": "cell viability", "Value Observed": 107}

Which cell viability value belongs to CCCCC(=O)O[C@H]1CC[C@H]2[C@@H]3CCc4cc(O)ccc4[C@H]3CC[C@]12C [Estradiol valerate] ? 69.2

Which cell viability value belongs to COc1cccc(C=NCCN=Cc2cccc(OC)c2[O-])c1[O-].[Cl-].[Mn+3] ? 104

Which cell viability value belongs to COc1ccc2cc1Oc1ccc(cc1)C[C@H]1c3c(cc4c(c3Oc3cc5c(cc3OC)CCN(C)[C@@H]5C2)OCO4)CCN1C ? 26.7

Which cell viability value belongs to NCCOCCOCCNC(=O)Cc1ccc(Nc2nc(NCc3ccc(F)cc3)nc(NCC3CCCCC3)n2)cc1 [AP-III-a4 (ENOblock)] ? 14

Which cell viability value belongs to CC(C)c1cc(C(=O)N2Cc3ccc(CN4CCN(C)CC4)cc3C2)c(O)cc1O ? 4.31

Which cell viability value belongs to C[C@H](CCC(=O)NCCS(=O)(=O)O)[C@H]1CC[C@H]2[C@@H]3[C@@H](O)C[C@@H]4C[C@H](O)CC[C@]4(C)[C@H]3CC[C@]12C ? 103

Which cell viability value belongs to COC[C@H]1C[C@@H](c2nc(-c3ccc4c(c3)COc3cc5c(ccc6nc([C@@H]7CC[C@H](C)N7C(=O)[C@@H](NC(=O)OC)C(C)C)[nH]c65)cc3-4)c[nH]2)N(C(=O)[C@H](NC(=O)OC)c2ccccc2)C1 ? 93.5

Which cell viability value belongs to O=C1CN(/N=C/C=C/c2ccc([N+](=O)[O-])o2)C(=O)N1 ? 108

---

# System: MARIMO
# Test Details: cell viability relative to vehicle control; higher = less cytotoxic
# Run Parameters: 10 µM; SRSF2 genotype: SRSF2 P95H/wt
Where a name gives a salt, the structure may show the parent alone.
Measured Endpoint: cell viability (%)
Reply with just the number (in %).

These recorded examples may help you get a feel for the data.
{"Molecule": "COc1ccccc1", "Value Unit": "%", "cell viability": 98.6}
{"Molecule": "COc1cc(/C=C/C(=O)CC(=O)/C=C/c2ccc(O)c(OC)c2)ccc1O", "Value Unit": "%", "cell viability": 87.3}
{"Molecule": "O=C(Nc1ccc(S(=O)(=O)Nc2ccccc2Cl)c(Cl)c1)c1ccccn1", "Value Unit": "%", "cell viability": 95.6}
{"Molecule": "COc1cc(C(C)=O)ccc1O", "Value Unit": "%", "cell viability": 91.6}
{"Molecule": "CC(C)(C)c1cc(C(C)(C)C)c(NC(=O)c2c[nH]c3ccccc3c2=O)cc1O", "Value Unit": "%", "cell viability": 101}

Lab request: please report cell viability under test system MARIMO for CCOC(=O)[C@H](CCc1ccccc1)N[C@@H](C)C(=O)N1C(=O)N(C)C[C@H]1C(=O)O [Imidapril HCl] 84.9

---

# Test system: MARIMO
# Test Details: cell viability relative to vehicle control; higher = less cytotoxic
# Run Parameters: 10 µM; SRSF2 genotype: SRSF2 P95H/wt
Measured cell viability accompanies every entry in the list below.
Reply with just the number (in %).

Lab request: please report cell viability under test system MARIMO for CC/C(=C(/CC)c1ccc(O)cc1)c1ccc(O)cc1 [Diethylstilbestrol] 84.5

Lab request: please report cell viability under test system MARIMO for CC(=O)[C@H]1CC[C@H]2[C@@H]3CCC4=CC(=O)CC[C@]4(C)[C@H]3CC[C@]12C [Progesterone (Prometrium)] 60.7

Lab request: please report cell viability under test system MARIMO for COc1ccc(Cl)c(Nc2nc3ccccc3nc2NS(=O)(=O)c2cccc(NC(=O)C(C)(C)N)c2)c1 [Pilaralisib (XL147)] 68.6

Lab request: please report cell viability under test system MARIMO for COC(=O)c1cc(OC)c(OC)c(OC)c1 [Methyl EudesMate] 97.6

---

# System: OCI-AML2
# Test Details: cell viability relative to vehicle control; higher = less cytotoxic
# Run Parameters: 10 µM; SRSF2 genotype: wt/wt
Structures can show the parent of a compound that is named as a salt.
Measured cell viability accompanies every entry in the list below.
Reply with just the number (in %).

{"Compound": "CC(=O)N1CCC(Nc2cc(C(=O)NC[C@H](O)CN3CCc4ccccc4C3)ncn2)CC1", "Study System": "OCI-AML2", "Value Observed": 85.2}
{"Compound": "NC(=O)[C@@H](CCC(F)(F)F)N(Cc1ccc(-c2ncon2)cc1F)S(=O)(=O)c1ccc(Cl)cc1", "Study System": "OCI-AML2", "Value Observed": 104}
{"Compound": "COc1cc2nccc(Oc3ccc(NC(=O)Nc4ccc(F)cc4F)c(F)c3)c2cc1OC", "Study System": "OCI-AML2", "Value Observed": 51.5}
{"Compound": "CCN(CC)C(=S)SSC(=S)N(CC)CC", "Study System": "OCI-AML2", "Value Observed": 20.8}
{"Compound": "CC1(C)C=C(CN2C/C(=C\\c3ccc(F)cc3)C(=O)/C(=C/c3ccc(F)cc3)C2)C(C)(C)N1O", "Study System": "OCI-AML2", "Value Observed": 0.32}

Which cell viability value belongs to NC1=N[C@@]2(c3cc(NC(=O)c4ccc(F)cn4)ccc3F)COC[C@H]2CS1 ? 92.6

Which cell viability value belongs to COc1cc(-c2oc3cc(O)cc(O)c3c(=O)c2O[C@@H]2O[C@H](CO[C@@H]3O[C@@H](C)[C@H](O)[C@@H](O)[C@H]3O)[C@@H](O)[C@H](O)[C@H]2O)ccc1O [Narcissoside] ? 109

Which cell viability value belongs to Cc1ccc(/C=C2/C(=O)C3(C)CCC2C3(C)C)cc1 (configuration not stated) ? 99.7

Which cell viability value belongs to OC[C@@H](O)CN1CCN(c2ccccc2)CC1 ? 96

Which cell viability value belongs to CC(C)NCC(O)COc1ccc(COCCOC(C)C)cc1 (configuration not stated) [Bisoprolol fumarate] ? 99.8

Which cell viability value belongs to Cc1[nH]c2ccccc2c1CCNC(=O)c1cccs1 ? 97.4

---

# Tested on: MARIMO
# Test Details: cell viability relative to vehicle control; higher = less cytotoxic
# Run Parameters: 10 µM; SRSF2 genotype: SRSF2 wt/wt
Counter-ions that a name gives are not always drawn.
Measured cell viability accompanies every entry in the list below.
Reply with just the number (in %).

{"Compound": "COc1ccc2c(c1)c(CC(=O)O)c(C)n2C(=O)c1ccc(Cl)cc1 [Indomethacin (Indocid, Indocin)]", "Value Unit": "%", "cell viability": 107}
{"Compound": "C[N+](C)(C)CC(O)CC(=O)[O-] (racemic) [DL-Carnitine hydrochloride]", "Value Unit": "%", "cell viability": 106}
{"Compound": "CNC[C@H](O)[C@@H](O)[C@H](O)[C@H](O)CO [Meglumine]", "Value Unit": "%", "cell viability": 106}
{"Compound": "Cc1ccc(S(=O)(=O)Cc2nc(-c3ccc(C(=O)NCc4cccnc4)cc3)oc2C)cc1", "Value Unit": "%", "cell viability": 37.2}
{"Compound": "CC1(C)[C@@H](O)CC[C@]2(C)[C@H]3C(=O)C=C4[C@@H]5C[C@@](C)(C(=O)O)CC[C@]5(C)CC[C@@]4(C)[C@]3(C)CC[C@@H]12 [Enoxolone (Glycyrrhetin)]", "Value Unit": "%", "cell viability": 105}
{"Compound": "C[N+]1(C)CCCC1C(=O)[O-] (centres undefined) [Stachydrine]", "Value Unit": "%", "cell viability": 100}
{"Compound": "COc1cc2ncnc(Nc3ccc(Cl)cc3F)c2cc1OC", "Value Unit": "%", "cell viability": 103}
{"Compound": "Nc1nc(N)nc(-c2cc(Cl)ccc2Cl)n1 [Irsogladine]", "Value Unit": "%", "cell viability": 113}

Turning to the following compound.
Which cell viability value belongs to Cc1cc(CN2CCN(c3c(Br)cnc4nc(-c5ccc(N6CCN(C)CC6)cc5)[nH]c34)CC2)no1 ? 87
